# procedure text: qHTS Assay for Lipid Storage Modulators in Drosophila S3 Cells
# condition set: BODIPY lipid droplet fluorescence, 18-24 h, cells fed with added oleic acid; series mostly up to 46.1 µM
# Excerpt: NIH Molecular Libraries Probe Production Centers Network [MLPCN] NIH Chemical Genomics Center [NCGC] […] Triacsin C (Sigma-Aldrich T-4540), an inhibitor of long-chain fatty acyl CoA synthetase that blocks synthesis of triglycerides, was used as a positive control for lipid under-storage. […] Fluorescence was detected by excitation of the fluorophores with a 488-nm laser on an Acumen Explorer (TTP Lab Tech). […] Cells were detected using channel 3 (575-640 nm) with 5-um width and 100-um depth filters. […]
Among all 320,000 compounds or so, about 2,100 (0.66%) were called active. About 53% were inconclusive and are not listed. Calls follow the shape of the dose curve; as a rule, active = well fitted inhibition curve with a large enough effect in the signal ratio, with a control signal flat (not every such curve was filed as active); inconclusive = small, poorly fitted or top-dose-only effect, or effect the other way, or a change in a side signal; inactive = flat fitted curve, though single readings scatter; the % refers to the signal ratio. The sample holds actives, similar compounds and a random draw of the others, so the mix is not that of the screen.
Respond with a class label; see active, inactive

For orientation, consider the following solved cases.
[[record]]
compound = "Cc1cc(C)cc(N2CC(C(=O)Nc3cc(C)on3)CC2=O)c1 (stereo unspecified)"
class = "inactive"

[[record]]
compound = "CC(=O)NCCc1nc2cc(NC(=O)c3cccc([N+](=O)[O-])c3)ccc2n1C"
class = "inactive"

[[record]]
compound = "Cc1nc2ccccc2nc(C)c1=NO"
class = "inactive"

[[record]]
compound = "C/C(CC(O)c1ccc2ccccc2n1)=N/O (stereo unspecified)"
class = "active"


*Q* Entry COc1ccc(N2CC(C)Cn3c2nc2c3c(=O)n(CCN3CCOCC3)c(=O)n2C)cc1 (stereo unspecified) : call = ?
*A* active

*Q* Give the logged outcome of this assay for the following compound: "CCCCCC(=O)Nc1cc(N(C)C)nc2ccccc12"
*A* inactive

*Q* What was the test verdict on "COc1ccc(N2CCCn3c2nc2c3c(=O)n(CCN3CCOCC3)c(=O)n2C)cc1" ?
*A* inactive

*Q* Tell me the assay call for "COc1ccc(N2CCN(C(=S)Nc3ccc(C)cc3)CC2)cc1" please.
*A* inactive

* * *

# procedure text: qHTS Assay for Lipid Storage Modulators in Drosophila S3 Cells
# condition set: BODIPY lipid droplet fluorescence, 18-24 h, cells fed with added oleic acid; series mostly up to 46.1 µM
About 2,100 (0.66%) of roughly 320,000 compounds were called active. Not shown: some 53% with an inconclusive outcome. The call rests on the fitted dose curve; in most records, active means well fitted inhibition curve with a large enough effect in the signal ratio, with a control signal flat (not every such curve was filed as active); inconclusive means small, poorly fitted or top-dose-only effect, or effect the other way, or a change in a side signal; inactive means flat fitted curve, though single readings scatter; the % refers to the signal ratio. This excerpt belongs to a sample that is enriched for actives.
Hi! Could you answer with just one of these? active, inactive

*Q* What was the test verdict on "Cc1nn(Cc2ccccc2)c(C)c1NC(=O)CCCn1nc([N+](=O)[O-])c(Cl)c1C" ?
*A* inactive

*Q* In this assay, the call recorded for "Cc1nn(Cc2ccc(Cl)cc2)c(C)c1NC(=O)CCCn1nc(C)c([N+](=O)[O-])c1C" was what?
*A* active

*Q* Given Cc1nn(Cc2ccc(Cl)cc2)c(C)c1NC(=O)C1CC=CCC1C(=O)O (stereo not given) , state the outcome it received in this test.
*A* inactive

*Q* What was the test verdict on "Cc1ccc(Cn2nc(C)c(NC(=O)CCCn3nc([N+](=O)[O-])c(Cl)c3C)c2C)cc1" ?
*A* active

*Q* Hello, I am checking results. What call was entered for "Cc1nn(Cc2ccccc2Cl)c(C)c1NC(=O)CCCn1nc(C)c([N+](=O)[O-])c1C" ?
*A* inactive

* * *

# procedure text: qHTS Assay for Lipid Storage Modulators in Drosophila S3 Cells
# condition set: BODIPY lipid droplet fluorescence, 18-24 h, cells fed with added oleic acid; series mostly up to 46.1 µM
Out of some 320,000 compounds screened, about 2,100 (0.66%) were called active. Inconclusive results (about 53%) are left out. Calls come from the whole dose curve; as a rule, active = well fitted inhibition curve with a large enough effect in the signal ratio, with a control signal flat (not every such curve was filed as active); inconclusive = small, poorly fitted or top-dose-only effect, or effect the other way, or a change in a side signal; inactive = flat fitted curve, though single readings scatter; the % refers to the signal ratio. The list comes from a sample in which actives are over-represented; it also holds close analogues and randomly drawn compounds.
Assign a class; possible classes are 1 (yes) = active, 0 (no) = inactive

[[record]]
molecule = "Cc1nnc(SCC(=O)N2CCN(S(=O)(=O)c3ccc(Cl)cc3)CC2)n(N)c1=O"
class = "0 (no)"

[[record]]
molecule = "CCOC(=O)Cc1cc(=O)n2[nH]c(C)c(-c3ccc(Cl)cc3)c2n1"
class = "0 (no)"

[[record]]
molecule = "Cc1nn(C(C)CC(=O)O)c(C)c1C (configuration not stated)"
class = "1 (yes)"

[[record]]
molecule = "CCOC(=O)c1sc(NC(C)=O)nc1C"
class = "0 (no)"

[[record]]
molecule = "O=S1(=O)N=C(Oc2cccc3ccccc23)c2ccccc21"
class = "0 (no)"


*Q* Hi, sorry to bother you, what did the test record for "Nn1c(SCC(=O)Nc2ccccc2)nnc1-c1cccnc1" ?
*A* 0 (no)

*Q* Kindly provide the recorded test outcome for the following molecule: "CC(C)(C)c1ccc(NC(=O)c2cc[n+]([O-])cc2)cc1"
*A* 0 (no)

* * *

# procedure text: qHTS Assay for Lipid Storage Modulators in Drosophila S3 Cells
# condition set: BODIPY lipid droplet fluorescence, 18-24 h, cells fed with added oleic acid; series mostly up to 46.1 µM
Screen size: about 320,000 compounds; about 2,100 (0.66%) were called active. Roughly 53% stayed inconclusive and do not appear here. The call rests on the fitted dose curve; in most records, active means well fitted inhibition curve with a large enough effect in the signal ratio, with a control signal flat (not every such curve was filed as active); inconclusive means small, poorly fitted or top-dose-only effect, or effect the other way, or a change in a side signal; inactive means flat fitted curve, though single readings scatter; the % refers to the signal ratio. The sample as a whole holds a higher share of actives than the screen did.
Can you answer with just one of these options? active, inactive

*Q* What was the test verdict on "Cc1nc(Cl)sc1C(=O)Nc1ccc(C(F)(F)F)cc1" ?
*A* active

*Q* Assay result, entry "Cn1cc(-c2ccc(Cl)cc2)cc(C#N)c1=O" — outcome?
*A* inactive

*Q* Check the results log: what was the call for "Nc1c(C(=O)NCCc2ccccc2)nnn1Cc1ccc(Br)cc1F" ?
*A* inactive

*Q* Answer briefly: the call reported for "Cc1nc(Cl)sc1C(=O)Nc1ccccc1Cl" in this assay.
*A* inactive

*Q* Short answer needed: outcome of this test for "c1ccc(-c2csc3ncnc(NCc4ccccn4)c23)cc1" ?
*A* inactive

*Q* I'd appreciate the recorded outcome for "O=C(Nc1cccc(C(F)(F)F)c1)c1cc(-c2ccco2)on1" from this test.
*A* inactive

* * *

# procedure text: qHTS Assay for Lipid Storage Modulators in Drosophila S3 Cells;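 as to cell number change: cells counted by Cell Tracker Red CMTPX staining in the red channel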
# condition set: BODIPY lipid droplet fluorescence, 18-24 h, cells fed with added oleic acid; measured here: cell count max response
In all, about 320,000 compounds went through this assay and about 2,100 (0.66%) were called active. Roughly 53% stayed inconclusive and do not appear here. The full list was thinned out, with actives kept by preference.
property: cell number change (%)
Numbers only, in %.

Answered cases to consult:
[[record]]
molecule = "CC(NC(=O)CN(C1CCCCC1)S(C)(=O)=O)c1ccccc1 (configuration not stated)"
measured_value = -4.99

[[record]]
molecule = "O=C(NCc1cccc(Cl)c1)C1CCC(=O)N(CCCN2CCCC2=O)C1 (configuration not stated)"
measured_value = 15.8

[[record]]
molecule = "Cc1cc(C)cc(OCCCCCNCCO)c1"
measured_value = -17.6

[[record]]
molecule = "Cc1nc(SCC(=O)NC(=O)NC2CCCCC2)nc(C)c1C"
measured_value = -13.4

[[record]]
molecule = "CCN1C(=O)c2cccc3c(Cl)ccc1c23"
measured_value = -17.2

[[record]]
molecule = "S=C1NCCOCCOCCOCCNC(=S)N2CCOCCOCCN1CCOCCOCC2"
measured_value = -2.24


# per-item lookup of cell number change; items listed below
1. COC(=O)CNC(=O)CNC(=O)Nc1ccccc1
2. COc1cccc(N2CCN(c3nc(C)cc(=O)[nH]3)CC2)c1
3. COc1ccc(CC(=O)NC2CCN(Cc3nnnn3C(C)(C)C)CC2)cc1OC
4. CC(C)CSc1nc2c(c(=O)[nH]c(=O)n2C)n1CCc1ccccc1
5. Cc1ccccc1OCCCCCNCCO
6. Cc1cc(C)nc(NC(C)(C)C(=O)O)n1

*A*
[1.69, 15.9, -1.5, 0.065, 2.5, 0.119]

Lab note: each molecule below needs its cell number change filled in.
1. COc1ccc(CCNC(=O)c2ccc(=O)[nH]c2)cc1OC
2. COc1cc2c(cc1OC)CN(c1ccc(-c3ccccc3OC)nn1)CC2
3. O=C(NNC(=O)c1csc(-c2cccnc2)n1)c1ccccc1
4. Cc1c(C(=O)O/N=C(\N)c2ccccn2)cccc1[N+](=O)[O-]
5. CCCn1c(C(O)c2ccc(OC)cc2)nc2ccccc21 (configuration not stated)
6. CCN1C(=O)/C(=c2\sc3nc(=O)c(Cc4ccccc4)nn3c2=O)c2ccccc21

*A*
1: 10.1; 2: -18; 3: 5.13; 4: 7.58; 5: 0.04; 6: 6.19

* * *

# procedure text: qHTS Assay for Lipid Storage Modulators in Drosophila S3 Cells
# condition set: BODIPY lipid droplet fluorescence, 18-24 h, cells fed with added oleic acid; series mostly up to 46.1 µM
The whole screen tested about 320,000 compounds, of which about 2,100 (0.66%) were called active. Roughly 53% stayed inconclusive and do not appear here. The call rests on the fitted dose curve; in most records, active means well fitted inhibition curve with a large enough effect in the signal ratio, with a control signal flat (not every such curve was filed as active); inconclusive means small, poorly fitted or top-dose-only effect, or effect the other way, or a change in a side signal; inactive means flat fitted curve, though single readings scatter; the % refers to the signal ratio. This is one part of a sample in which actives are shown more often than they occur.
Please state which outcome applies, choosing from active, inactive

[[record]]
test_smiles = "O=C(Nc1cccc2ncccc12)c1ccc(-c2ccc(Br)cc2)o1"
class = "inactive"

[[record]]
test_smiles = "COc1cccc(CNC(=O)CCn2c(=O)c3cccn3c3cccnc32)c1"
class = "inactive"

[[record]]
test_smiles = "CSc1cccc(NC(=O)CCCn2c(=O)c3cccn3c3cccnc32)c1"
class = "active"

[[record]]
test_smiles = "O=C(Nc1ncccn1)c1ccc([N+](=O)[O-])o1"
class = "inactive"

[[record]]
test_smiles = "CCCn1c(NC(=O)c2ccco2)nc2ccccc21"
class = "inactive"

[[record]]
test_smiles = "O=C(NC1CCN(S(=O)(=O)c2ccc(F)cc2)CC1)C1CCCCC1"
class = "active"


*Q* Please state the recorded outcome for this molecule: "O=C(COC(=O)CNS(=O)(=O)c1cccc(Br)c1)NC(=O)Nc1ccc2c(c1)OCCO2"
*A* inactive

*Q* Call for entry "O=C(Nc1ccccn1)c1ccc([N+](=O)[O-])o1" :
*A* active

*Q* Hello, I am checking results. What call was entered for "O=C(Nc1ccccc1)c1cccnc1NCCc1ccccc1" ?
*A* inactive

*Q* What call does the record list for "CCCn1c(NC(=O)c2ccc([N+](=O)[O-])o2)nc2ccccc21" ?
*A* active

*Q* Recorded test call requested for "O=C(Nc1cccc(O)c1)C(=O)Nc1ccccn1"
*A* inactive
